Reported inhibition is given for each of the following molecules.
target: Kelch-like ECH-associated protein 1 (Homo sapiens) (UniProt Q14145); assay: competitive SPR blockade of Keap1/Nrf2 binding – biophysical, dry powder, orthogonal assay for Keap1-Nrf2 interaction inhibitor project, confirmation (AID 651876); settings: Keap1 Kelch binding to Nrf2 peptide, inhibition, at 5 µM, stronger effect = higher value
Sequence (Q14145 whole entry, looked up): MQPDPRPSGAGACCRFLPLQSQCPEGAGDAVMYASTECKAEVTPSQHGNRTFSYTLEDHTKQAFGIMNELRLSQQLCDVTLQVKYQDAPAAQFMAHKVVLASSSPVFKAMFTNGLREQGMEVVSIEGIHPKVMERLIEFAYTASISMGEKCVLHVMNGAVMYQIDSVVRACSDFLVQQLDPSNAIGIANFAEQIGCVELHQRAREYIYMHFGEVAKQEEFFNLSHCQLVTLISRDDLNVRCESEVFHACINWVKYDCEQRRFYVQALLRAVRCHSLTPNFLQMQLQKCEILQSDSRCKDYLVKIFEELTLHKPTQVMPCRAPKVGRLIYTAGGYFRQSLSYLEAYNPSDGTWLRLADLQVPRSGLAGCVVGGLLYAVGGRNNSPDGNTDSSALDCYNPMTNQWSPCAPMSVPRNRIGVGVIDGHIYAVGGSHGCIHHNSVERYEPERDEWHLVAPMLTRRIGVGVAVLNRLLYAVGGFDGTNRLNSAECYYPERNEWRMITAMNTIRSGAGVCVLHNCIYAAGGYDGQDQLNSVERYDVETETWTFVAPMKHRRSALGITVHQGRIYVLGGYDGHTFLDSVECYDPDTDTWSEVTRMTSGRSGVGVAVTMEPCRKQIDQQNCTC
Measured parameter: inhibition (%)

molecule=Cc1ccc(S(=O)(=O)NNc2nc(NCC(N)=O)nc3ccccc23)cc1 measured_parameter=inhibition unit_spec=% measured_value=-3.5
molecule=O=C(O)[C@H]1CCCC[C@H]1C(=O)N1CCc2ccccc2[C@H]1CNc1nc(Cl)nc2ccccc12 measured_parameter=inhibition unit_spec=% measured_value=-1.3
molecule=O=S(=O)(Nc1nc(NCC2CCCCC2)nc2ccccc12)c1ccccc1 measured_parameter=inhibition unit_spec=% measured_value=-1.7
molecule=NC(=O)[C@H]1CCCC[C@H]1C(=O)N1CCc2ccccc2[C@H]1CN1C(=O)c2ccccc2C1=O measured_parameter=inhibition unit_spec=% measured_value=5.6
molecule="O=C(O)C1CCCCC1C(=O)N1CCCCC1CN1C(=O)c2ccccc2C1=O (stereo not given)" measured_parameter=inhibition unit_spec=% measured_value=0.4
